Test system: DLD1
protocol-description: cell viability (CellTiter-Glo) relative to plate median (fraction of plate median); higher = more viable cells
particulars: 10 µM; treatment time 24 h; reporter: TCF4/Wnt
Rule: cell viability below 1 gives satisfied, anything at or above gives not satisfied.

* NC(=O)Nc1cc(-c2cccc(F)c2)sc1C(=O)N[C@H]1CCCNC1 | satisfied
* C#Cc1cccc(Nc2ncnc3cc(OCCOC)c(OCCO)cc23)c1 [OSI-420 (Desmethyl Erlotinib)] | satisfied
* CCOc1cc2ncc(C#N)c(Nc3ccc(OCc4ccccn4)c(Cl)c3)c2cc1NC(=O)/C=C/CN(C)C | satisfied
* CNC(=O)c1cc(Oc2ccc(NC(=O)Nc3cc(C(C)(C)C)nn3-c3ccc4ncccc4c3)c(F)c2)ccn1 [DCC-2036 (Rebastinib)] | not satisfied
* Cc1nc(Nc2ncc(C(=O)Nc3c(C)cccc3Cl)s2)cc(N2CCN(CCO)CC2)n1 | satisfied
* O=c1cc(N2CCOCC2)oc2c(-c3cccc4c3sc3ccccc34)cccc12 | satisfied
* CN1CCN(c2nc(C3=C(c4c[nH]c5ccccc45)C(=O)NC3=O)c3ccccc3n2)CC1 | not satisfied
* O=C(O)c1ccc2c(c1)nc(Nc1cccc(Cl)c1)c1ccncc12 [cx-4945 (Silmitasertib)] | satisfied
* Nc1ccc(C(=O)Nc2cccc(-c3nc(N4CCOCC4)c4oc5ncccc5c4n3)c2)cn1 | satisfied
* COc1cc(CCc2cc(NC(=O)c3ccc(N4CC(C)NC(C)C4)cc3)n[nH]2)cc(OC)c1 (stereo not drawn) | satisfied
* CO[C@H]1C[C@@H]2CC[C@@H](C)[C@@](O)(O2)C(=O)C(=O)N2CCCC[C@H]2C(=O)O[C@H]([C@H](C)C[C@@H]2CC[C@@H](OP(C)(C)=O)[C@H](OC)C2)CC(=O)[C@H](C)/C=C(\C)[C@@H](O)[C@@H](OC)C(=O)[C@H](C)C[C@H](C)/C=C/C=C/C=C/1C [Deforolimus (Ridaforolimus)] | not satisfied
* N#C/C(=C\c1ccc(O)c(O)c1)C(=O)NCc1ccccc1 | satisfied
* CS(=O)(=O)N1CCN(Cc2cc3nc(-c4cccc5[nH]ncc45)nc(N4CCOCC4)c3s2)CC1 | not satisfied
* COC(=O)c1ccc2c(C(=Nc3ccc(N(C)C(=O)CN4CCN(C)CC4)cc3)c3ccccc3)c(O)[nH]c2c1 | not satisfied
* COc1cc2c(Oc3ccc4[nH]c(C)cc4c3F)ncnc2cc1OCCCN1CCCC1 | satisfied
* CNC(=O)c1ccc(-c2cnc3ncc(Cc4ccc5ncccc5c4)n3n2)cc1F | satisfied
* Cc1cn(-c2cc(NC(=O)c3ccc(C)c(Nc4nccc(-c5cccnc5)n4)c3)cc(C(F)(F)F)c2)cn1 | satisfied
* Cc1[nH]nc2ccc(-c3cncc(OC[C@@H](N)Cc4ccccc4)c3)cc12 | not satisfied
* CN(C[C@@H]1COCCO1)S(=O)(=O)Nc1ccc2ccc3ncc(-c4cnn(C)c4)cc3c(=O)c2c1 | satisfied
* Cc1cc(Nc2cc(CN3CCOCC3)c3nc(C)c(Cc4ccc(Cl)cc4F)n3n2)n[nH]1 | not satisfied
* CCCS(=O)(=O)Nc1ccc(F)c(C(=O)c2c[nH]c3ncc(Cl)cc23)c1F | satisfied

====

Test system: SW480
protocol-description: TCF/Wnt firefly luciferase reporter signal relative to plate median (fraction of plate median); higher = higher Wnt reporter signal
particulars: 5 µM; treatment time 24 h; reporter: 7TFP
Measured TCF/Wnt firefly luciferase reporter signal values are reported for all entries that follow.
quantity: TCF/Wnt firefly luciferase reporter signal

- COc1cc([C@@H]2c3cc4c(cc3[C@@H](O[C@@H]3O[C@@H]5CO[C@@H](C)O[C@H]5[C@H](O)[C@H]3O)[C@H]3COC(=O)[C@H]23)OCO4)cc(OC)c1O: 0.879
- C/N=C(/NC#N)NCCSCc1csc(NC(=N)N)n1: 1.11
- Nc1ccn([C@@H]2O[C@H](CO)[C@@H](O)[C@H]2O)c(=O)n1: 1.05
- CC(C)CCC[C@@H](C)[C@H]1CC[C@H]2[C@@H]3CC(=O)[C@H]4C[C@@H](O)CC[C@]4(C)[C@H]3CC[C@]12C [5alpha-CHOLESTAN-3beta-OL-6-ONE]: 0.874
- Cn1nnnc1SCC1=C(C(=O)O)N2C(=O)[C@@H](NC(=O)[C@H](OC=O)c3ccccc3)[C@H]2SC1: 0.992
- C[C@@H]1O[C@@H](O[C@H]2[C@H](Oc3cc(O)c4c(=O)cc(-c5ccc(O)cc5)oc4c3)O[C@H](CO)[C@@H](O)[C@@H]2O)[C@H](O)[C@H](O)[C@H]1O: 1.02
- Cc1oncc1C(=O)Nc1ccc(C(F)(F)F)cc1: 1.05
- C[C@H]1C[C@@H]2[C@H]([C@@H](O)C[C@@]3(C)[C@H]2CC[C@]3(O)C(=O)COC(=O)CCC(=O)O)[C@@]2(C)C=CC(=O)C=C12: 0.997
- COc1c(N2C[C@@H]3CCCN[C@@H]3C2)c(F)cc2c(=O)c(C(=O)O)cn(C3CC3)c12: 1
- N[C@@H](Cc1cc(I)c(Oc2ccc(O)c(I)c2)c(I)c1)C(=O)O [LIOTHYRONINE (L- isomer) SODIUM]: 1.05
- CCOc1ccc(Cc2nccc3cc(OCC)c(OCC)cc23)cc1OCC: 0.95
- O=C(c1c[nH]c2ccccc12)C(O)CO (stereo not given) [1-(3-Indolyl)-2,3-dihydroxypropan-1-one]: 1
- COC(=O)C[C@H]1C(C)(C)C(=O)[C@@H]2CC3=C4CC(=O)O[C@@H](c5ccoc5)[C@]4(C)CC[C@@H]3[C@@]1(C)C2=O: 1.03
- O=C(C=Cc1ccc(O)cc1)c1ccccc1O: 1.07
- COC1C(OC(C)=O)C(C)OC(OC2C(Oc3cccc4c(OC(C)=O)c5c(=O)oc6ccc(C)c7c(=O)oc(c34)c5c67)OC(C)C(OC(C)=O)C2OC(C)=O)C1OC(C)=O (stereo not given) [Chartreusin-pentaacetate]: 1.1

====

System: HCT116
protocol-description: cell viability (CellTiter-Glo) relative to plate median (fraction of plate median); higher = more viable cells
particulars: 5 µM; treatment time 24 h; reporter: TCF4/Wnt
quantity: cell viability

- C=C(C)[C@@H]1C[C@H](O)[C@]2(C(=O)O)CC[C@]3(C)[C@H](C[C@H]4OC(=O)C[C@@H](O)[C@]5(C)[C@@H]4[C@@]3(C)CC[C@H]5C(=C)C)[C@@H]12 [22alpha-hydroxychiisanogenin (11)]: 0.884
- CC=CC1=C(C(=O)O)N2C(=O)[C@@H](NC(=O)[C@H](N)c3ccc(O)cc3)[C@H]2SC1: 1.03
- COc1ccc2cc(CCC(C)=O)ccc2c1: 0.905
- CC1(C)O[C@@H]2C[C@H]3[C@@H]4CCC5=CC(=O)CC[C@]5(C)[C@@]4(F)[C@@H](O)C[C@]3(C)[C@]2(C(=O)CCl)O1: 0.925
- CC[C@@H](CO)NCCN[C@@H](CC)CO: 1.03
- O=C1c2ccccc2C(=O)c2c1ccc(O)c2O: 1.05
- CCNC(=O)CC[C@H](N)C(=O)O: 1.03
- CC[C@H]1OC(=O)C[C@@H](O)[C@H](C)[C@@H](O[C@@H]2O[C@H](C)[C@@H](O[C@H]3C[C@@](C)(O)[C@@H](O)[C@H](C)O3)[C@H](N(C)C)[C@H]2O)[C@@H](CC=O)C[C@@H](C)C(=O)/C=C/C(C)=C/[C@@H]1CO[C@@H]1O[C@H](C)[C@@H](O)[C@@H](OC)[C@H]1OC: 1.08
- Cc1c(NC(=O)c2cccnc2)c(=O)n(-c2ccccc2)n1C: 1.1
- Nc1cc(-c2ccncc2)c[nH]c1=O: 0.99
- Oc1cccc(O)c1: 0.985
- CCOC(=O)NNc1nncc2ccccc12: 1.01
- CC(C(=O)O)c1ccc2c(c1)[nH]c1ccc(Cl)cc12 (stereo not given): 1.03
- COc1cc(OC)c2c(OC)c(-c3ccc4c(c3)OCO4)c(=O)oc2c1: 1.08
- CCOc1ccc2c(c1)C(C)=CC(C)(C)N2: 0.91
- COc1ccc(C(Cl)=C(c2ccc(OC)cc2)c2ccc(OC)cc2)cc1: 1.12
- CC(C)=CCc1c(O)cc2oc(C)cc(=O)c2c1O: 0.981
- O=c1ccc2ccc(O)cc2o1: 0.972
- CN(C)CCC=C1c2ccccc2C=Cc2ccccc21: 0.998
- CCCCOc1cc(C(=O)NCCN(CC)CC)c2ccccc2n1: 0.926

====

System: SW480
protocol-description: TCF/Wnt firefly luciferase reporter signal relative to plate median (fraction of plate median); higher = higher Wnt reporter signal
particulars: 10 µM; treatment time 24 h; reporter: 7TFP
quantity: TCF/Wnt firefly luciferase reporter signal

* COc1cc2c(Oc3ccc(NC(=O)C4(C(=O)Nc5ccc(F)cc5)CC4)cc3F)ccnc2cc1OCCCN1CCOCC1 | 0.838
* O=C1NC(=O)/C(=C/c2ccc(-c3ccc(F)cc3O)o2)S1 | 1.41
* c1cncc(CN2CCC(n3ncc4c(N5CCOCC5)nc(-c5ccc6[nH]ccc6c5)nc43)CC2)c1 | 1.16
* COc1ncc(-c2ccc3nccc(-c4ccnnc4)c3c2)cc1NS(=O)(=O)c1ccc(F)cc1F | 0.558
* CCC(=O)N1CCN(c2ccc(-n3c(=O)ccc4cnc5ccc(-c6cnc7ccccc7c6)cc5c43)cc2C(F)(F)F)CC1 | 0.66
* CS(=O)(=O)CCNCc1ccc(-c2ccc3ncnc(Nc4ccc(OCc5cccc(F)c5)c(Cl)c4)c3c2)o1 [Lapatinib Ditosylate (Tykerb)] | 1.16
* CNC(=O)c1ccc(-c2cnc3ncc(Cc4ccc5ncccc5c4)n3n2)cc1F | 0.652
* CCOc1cc2ncc(C#N)c(Nc3ccc(F)c(Cl)c3)c2cc1NC(=O)/C=C/CN(C)C [Pelitinib (EKB-569)] | 1.08
* O=C1NC(=O)/C(=C/c2ccc3c(c2)OC(F)(F)O3)S1 | 1.03
* CNC(=O)c1cc(Oc2ccc(NC(=O)Nc3ccc(Cl)c(C(F)(F)F)c3)cc2)ccn1 | 1.19
* CO[C@H]1C[C@@H]2CC[C@@H](C)[C@@](O)(O2)C(=O)C(=O)N2CCCC[C@H]2C(=O)O[C@H]([C@H](C)C[C@@H]2CC[C@@H](OP(C)(C)=O)[C@H](OC)C2)CC(=O)[C@H](C)/C=C(\C)[C@@H](O)[C@@H](OC)C(=O)[C@H](C)C[C@H](C)/C=C/C=C/C=C/1C [Deforolimus (Ridaforolimus)] | 1.11
* COc1cc(Nc2ncc(F)c(Nc3ccc4c(n3)NC(=O)C(C)(C)O4)n2)cc(OC)c1OC | 0.914
* NC(=O)Nc1sc(-c2ccc(F)cc2)cc1C(N)=O | 1.38
* Oc1cc(O)cc(/C=C/c2ccc(O)c(O)c2)c1 | 1.44
* CCS(=O)(=O)N1CC(CC#N)(n2cc(-c3ncnc4[nH]ccc34)cn2)C1 | 0.985
* COc1cc2ncnc(Nc3ccc(F)c(Cl)c3)c2cc1NC(=O)/C=C/CN1CCCCC1 | 0.935
